tested on: ATP; experiment: switch fluorescence ratio, 500 uM ATP over buffer (Cy3 cluster intensity, sum of 5 cycles each) (fold (ratio)); higher = stronger signal-on switching upon ATP binding; sequences stand for … in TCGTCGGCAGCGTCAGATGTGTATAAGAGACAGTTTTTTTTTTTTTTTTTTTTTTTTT…TC; conditions: aptamer strand: ATP DNA aptamer (quencher-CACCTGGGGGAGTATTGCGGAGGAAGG + anchor), 100 nM annealed; ATP concentration: 500 uM;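 note: ATP exposure 15 min at 22 °C before imaging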
Outcome Measure: switch fluorescence ratio

Residue Sequence: ATGAGTGTGG
Target Of Assay: ATP;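 note: ATP exposure 15 min at 22 °C before imaging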
Observed: 1.02

Residue Sequence: GTGTTCGACG
Target Of Assay: ATP;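 note: ATP exposure 15 min at 22 °C before imaging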
Observed: 0.995

Residue Sequence: CATCCGGCCG
Target Of Assay: ATP;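 note: ATP exposure 15 min at 22 °C before imaging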
Observed: 1.19

Residue Sequence: AGGGGGTTGT
Target Of Assay: ATP;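 note: ATP exposure 15 min at 22 °C before imaging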
Observed: 0.995

Residue Sequence: GTGGGAGGTG
Target Of Assay: ATP;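 note: ATP exposure 15 min at 22 °C before imaging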
Observed: 1

Residue Sequence: CGCCGGGTGC
Target Of Assay: ATP;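 note: ATP exposure 15 min at 22 °C before imaging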
Observed: 2.75

Residue Sequence: TTGTGATACT
Target Of Assay: ATP;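 note: ATP exposure 15 min at 22 °C before imaging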
Observed: 1.07

Residue Sequence: ATACCTCTTG
Target Of Assay: ATP;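 note: ATP exposure 15 min at 22 °C before imaging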
Observed: 0.992

Residue Sequence: ATTTTTAGT
Target Of Assay: ATP;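 note: ATP exposure 15 min at 22 °C before imaging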
Observed: 1

Residue Sequence: AAAGTGGTTC
Target Of Assay: ATP;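 note: ATP exposure 15 min at 22 °C before imaging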
Observed: 1.04

Residue Sequence: CTGTTGTTTG
Target Of Assay: ATP;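 note: ATP exposure 15 min at 22 °C before imaging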
Observed: 0.978

Residue Sequence: TGCGACGATG
Target Of Assay: ATP;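 note: ATP exposure 15 min at 22 °C before imaging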
Observed: 1.03

Residue Sequence: AGTACGTGCG
Target Of Assay: ATP;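 note: ATP exposure 15 min at 22 °C before imaging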
Observed: 0.978

Residue Sequence: ATGGTATCGG
Target Of Assay: ATP;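 note: ATP exposure 15 min at 22 °C before imaging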
Observed: 1.03

Residue Sequence: TGAAGTTAGC
Target Of Assay: ATP;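 note: ATP exposure 15 min at 22 °C before imaging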
Observed: 0.977

Residue Sequence: CGAAGGGTGA
Target Of Assay: ATP;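 note: ATP exposure 15 min at 22 °C before imaging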
Observed: 1.06

Residue Sequence: TCGGGACATC
Target Of Assay: ATP;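 note: ATP exposure 15 min at 22 °C before imaging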
Observed: 1.03

Residue Sequence: TTCTGGCATG
Target Of Assay: ATP;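 note: ATP exposure 15 min at 22 °C before imaging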
Observed: 1.09

Residue Sequence: TTGTAAAATT
Target Of Assay: ATP;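 note: ATP exposure 15 min at 22 °C before imaging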
Observed: 0.99

Residue Sequence: CATTAGGGTC
Target Of Assay: ATP;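 note: ATP exposure 15 min at 22 °C before imaging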
Observed: 0.932

Residue Sequence: AAAGAGAGTT
Target Of Assay: ATP;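 note: ATP exposure 15 min at 22 °C before imaging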
Observed: 0.996

Residue Sequence: CTATGGCTGG
Target Of Assay: ATP;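 note: ATP exposure 15 min at 22 °C before imaging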
Observed: 0.981

Residue Sequence: ATTAGCGCCC
Target Of Assay: ATP;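 note: ATP exposure 15 min at 22 °C before imaging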
Observed: 1.01

Residue Sequence: GGAGGGGCGG
Target Of Assay: ATP;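 note: ATP exposure 15 min at 22 °C before imaging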
Observed: 1.01

Residue Sequence: GCCGAAATGT
Target Of Assay: ATP;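 note: ATP exposure 15 min at 22 °C before imaging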
Observed: 1.06

Residue Sequence: TCGAGTTCTT
Target Of Assay: ATP;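 note: ATP exposure 15 min at 22 °C before imaging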
Observed: 0.999

Residue Sequence: CGGGGGTGGC
Target Of Assay: ATP;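 note: ATP exposure 15 min at 22 °C before imaging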
Observed: 0.984

Residue Sequence: TCTTAGGTCA
Target Of Assay: ATP;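 note: ATP exposure 15 min at 22 °C before imaging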
Observed: 0.973

Residue Sequence: TCCGAGTATG
Target Of Assay: ATP;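 note: ATP exposure 15 min at 22 °C before imaging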
Observed: 1.08

Residue Sequence: AATTTGGGAG
Target Of Assay: ATP;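 note: ATP exposure 15 min at 22 °C before imaging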
Observed: 1.01

###

tested on: ATP; assay: switch fluorescence ratio, 500 uM ATP over buffer (Cy3 cluster intensity, sum of 5 cycles each) (fold (ratio)); higher = stronger signal-on switching upon ATP binding; sequences stand for … in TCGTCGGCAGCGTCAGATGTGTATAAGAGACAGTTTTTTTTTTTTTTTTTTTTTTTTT…TC; details: aptamer strand: ATP DNA aptamer (quencher-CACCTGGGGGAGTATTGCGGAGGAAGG + anchor), 100 nM annealed; ATP concentration: 500 uM;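 note: ATP exposure 15 min at 22 °C before imaging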

Residue Sequence: TGAATATATT
Target Of Assay: ATP;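 note: ATP exposure 15 min at 22 °C before imaging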
switch fluorescence ratio: 1.01
//
Residue Sequence: ATTCAAGTT
Target Of Assay: ATP;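 note: ATP exposure 15 min at 22 °C before imaging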
switch fluorescence ratio: 0.999
//
Residue Sequence: TCTAATGGGT
Target Of Assay: ATP;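 note: ATP exposure 15 min at 22 °C before imaging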
switch fluorescence ratio: 0.982
//
Residue Sequence: GCTTCTGGGT
Target Of Assay: ATP;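 note: ATP exposure 15 min at 22 °C before imaging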
switch fluorescence ratio: 0.996
//
Residue Sequence: CGAGCTTTAG
Target Of Assay: ATP;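 note: ATP exposure 15 min at 22 °C before imaging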
switch fluorescence ratio: 1.02
//
Residue Sequence: AGGGTCAACG
Target Of Assay: ATP;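 note: ATP exposure 15 min at 22 °C before imaging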
switch fluorescence ratio: 1.02
//
Residue Sequence: TCATTGGGAA
Target Of Assay: ATP;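 note: ATP exposure 15 min at 22 °C before imaging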
switch fluorescence ratio: 1.01
//
Residue Sequence: TCGGTTTATA
Target Of Assay: ATP;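 note: ATP exposure 15 min at 22 °C before imaging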
switch fluorescence ratio: 0.997
//
Residue Sequence: GGGTGCACGG
Target Of Assay: ATP;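 note: ATP exposure 15 min at 22 °C before imaging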
switch fluorescence ratio: 1.01
//
Residue Sequence: CTTAGCCTCA
Target Of Assay: ATP;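 note: ATP exposure 15 min at 22 °C before imaging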
switch fluorescence ratio: 0.981
//
Residue Sequence: CCATTAAACT
Target Of Assay: ATP;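 note: ATP exposure 15 min at 22 °C before imaging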
switch fluorescence ratio: 1.01
